Experiment: Half life in BALB/c mouse at 10 mg/kg, po
Format: ADME, organism-based
Conditions: in vivo
Reported endpoint: half-life (min)
The response must be a number in min with no trailing unit.

Problem: Return reported half-life; argument: COc1cc(C)c(Cl)cc1S(=O)(=O)Nc1ccc2c(c1)CCCN2C(=O)c1ccccc1
Result: 30

###

Answer each item with its documented pIC50.
Molecular target: Glucocorticoid receptor (Homo sapiens, UniProt P04150)
Sequence (P04150 whole entry): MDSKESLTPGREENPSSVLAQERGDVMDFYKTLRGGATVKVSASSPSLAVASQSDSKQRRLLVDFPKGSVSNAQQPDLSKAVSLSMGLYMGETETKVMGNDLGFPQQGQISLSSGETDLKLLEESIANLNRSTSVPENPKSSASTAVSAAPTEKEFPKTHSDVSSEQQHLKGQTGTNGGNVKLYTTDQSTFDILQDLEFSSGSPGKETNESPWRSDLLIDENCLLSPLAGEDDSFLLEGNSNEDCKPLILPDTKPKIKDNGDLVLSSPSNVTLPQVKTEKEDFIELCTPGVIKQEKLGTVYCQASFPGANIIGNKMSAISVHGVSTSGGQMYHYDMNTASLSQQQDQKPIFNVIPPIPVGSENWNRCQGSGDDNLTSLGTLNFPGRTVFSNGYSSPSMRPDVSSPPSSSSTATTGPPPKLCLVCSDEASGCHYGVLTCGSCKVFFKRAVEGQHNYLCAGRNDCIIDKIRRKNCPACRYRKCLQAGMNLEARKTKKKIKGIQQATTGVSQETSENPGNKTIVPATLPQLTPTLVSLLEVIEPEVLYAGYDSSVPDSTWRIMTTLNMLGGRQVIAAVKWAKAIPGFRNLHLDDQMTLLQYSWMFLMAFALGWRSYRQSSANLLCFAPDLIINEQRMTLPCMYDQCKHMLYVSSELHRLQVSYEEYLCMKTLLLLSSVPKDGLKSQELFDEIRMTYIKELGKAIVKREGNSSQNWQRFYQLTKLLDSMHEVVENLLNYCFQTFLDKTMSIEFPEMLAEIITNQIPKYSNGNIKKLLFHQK
Experiment: Modulation of glucocorticoid receptor (unknown origin) transfected in human HeLa cells assessed as transrepression by measuring inhibition of PMA-induced AP-1 signalling incubated for 18 hrs by dual-luciferase reporter based assay
Format: cell-based
Note: pIC50 values are expressed as the negative base-10 logarithm of concentration in M.

Problem: # lookup: pIC50 of COc1cc(C)c(Cl)cc1S(=O)(=O)Nc1ccc2c(c1)CCCN2C(=O)N(C)C
Result: 6.28

Problem: Any idea what pIC50 was measured for COc1ccc(C(=O)N2CCCc3cc(NS(=O)(=O)c4cc(Cl)c(C)cc4OC)ccc32)cc1OC ?
Result: 5.88

Problem: Which pIC50 reading was recorded for the compound COc1cc(C)c(Cl)cc1S(=O)(=O)Nc1ccc2c(c1)CCCN2C(=O)c1cccs1 ?
Result: 5.87

Problem: Could you share which pIC50 value was measured for O=C(c1ccco1)N1CCCc2cc(NS(=O)(=O)CCc3ccccc3)ccc21 ?
Result: 5.19

Problem: What pIC50 value was documented for this compound, COc1cc(C)c(Cl)cc1S(=O)(=O)Nc1ccc2c(c1)CCCN2C(C)=O ?
Result: 5.57

Problem: Looking for the measured pIC50 of O=C(c1ccco1)N1CCCc2cc(NS(=O)(=O)c3ccc(C(F)(F)F)cc3)ccc21 , can you help?
Result: 5.49

Problem: Item COc1cc(C)c(Cl)cc1S(=O)(=O)Nc1ccc2c(c1)CCCN2C(=O)c1ccc(F)cc1 has what recorded pIC50?
Result: 5.56

Problem: Value lookup for pIC50; key = COc1cc(C)c(Cl)cc1S(=O)(=O)Nc1ccc2c(c1)N(C(=O)c1ccco1)CCC2
Result: 6.17

Problem: Given the compound COc1cc(C)c(Cl)cc1S(=O)(=O)Nc1ccc2c(c1)CCCN2C(=O)c1ccccc1 , what is its reported pIC50?
Result: 6.89

Problem: // query pIC50 value for entry COc1cc(C)c(Cl)cc1S(=O)(=O)Nc1ccc2c(c1)CCCN2C(=O)c1ccc2ccccc2c1
Result: 5.71

Problem: // query pIC50 value for entry O=C(c1ccco1)N1CCCc2cc(NS(=O)(=O)c3ccc(Cl)c(C(F)(F)F)c3)ccc21
Result: 5.39

Problem: Find the recorded pIC50 belonging to COc1ccccc1S(=O)(=O)Nc1ccc2c(c1)CCCN2C(=O)c1ccco1 and report it.
Result: 5.31

Problem: Which pIC50 is listed for COc1ccc(S(=O)(=O)N(c2ccc3c(c2)CCCN3C(=O)c2ccco2)S(=O)(=O)c2ccc(OC)cc2)cc1 ?
Result: 5.98

Problem: Which pIC50 is reported for this compound? COc1cc(C)c(Cl)cc1S(=O)(=O)Nc1ccc2c(c1)CCCN2C(=O)c1ccncc1
Result: 6.26
